- Method notes: Minocycline forced degradation (acid, base, H2O2, light) by HPLC
- Assay type: physicochemical
- Stated conditions: UV Light (24 h light exposure)
Readout: recovery at 24 h, 100 μg/mL (%)
# number only, unit % dropped from output

Please fill in: recovery at 24 h, 100 μg/mL reported for CN(C)c1ccc(O)c2c1C[C@H]1C[C@H]3[C@H](N(C)C)C(O)=C(C(N)=O)C(=O)[C@@]3(O)C(O)=C1C2=O = 98.5

* * *

- Method notes: Minocycline forced degradation (acid, base, H2O2, light) by HPLC
- Assay type: physicochemical
- Stated conditions: 1 M HCl solution, HCl (1 M, 1 h RT)
Readout: recovery at 1 h, 100 μg/mL

Please fill in: recovery at 1 h, 100 μg/mL reported for CN(C)c1ccc(O)c2c1C[C@H]1C[C@H]3[C@H](N(C)C)C(O)=C(C(N)=O)C(=O)[C@@]3(O)C(O)=C1C2=O [minocycline, Minocycline] = 88.9%
